# METHOD_SUMMARY: NCI Yeast Anticancer Drug Screen. Data for the rad50 strain (AID 155);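 also: 0% = growth of vehicle-only cultures of the same strain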
# CONDITION_CONTEXT: S. cerevisiae rad50 strain growth inhibition; at 50.0 µM; stronger effect = higher value
The panel holds about 79,000 compounds, 15% with a hit somewhere; the sample as a whole holds those more often.
Recorded growth inhibition, one value per entry.
The answer is to be given in %; state only the numeric part.

Some compounds with recorded growth inhibition:
{"COMPOUND": "Cc1nc2nc(NCCCN(C)C)nc(NCCCN(C)C)c2nc1C", "RECORDED_VALUE": 18.8}
{"COMPOUND": "O=S(=O)(O)C(O)C(F)(F)C(F)(F)C(F)(F)F (configuration not stated)", "RECORDED_VALUE": 16.2}
{"COMPOUND": "C=CCOC(=O)NC(CCC(=O)O)C(=O)O (configuration not stated)", "RECORDED_VALUE": 21.1}
{"COMPOUND": "N#CCc1ccccc1-c1ccccc1", "RECORDED_VALUE": 2.45}
{"COMPOUND": "O=C(c1ccccc1)C(C(c1ccc(Cl)cc1)N1CCOCC1)N1CCOCC1 (configuration not stated)", "RECORDED_VALUE": 5.15}
{"COMPOUND": "Cc1cc[n+](Cc2ccccc2Cl)c(C)c1", "RECORDED_VALUE": 19}

Next item in the queue.
// recorded growth inhibition for CC1=CN2C(c3ccc(Cl)cc3)=NON(c3ccc(C)cn3)C2C=C1 (configuration not stated) : -21.6

###

Recorded growth inhibition, one value per entry.
# METHOD_SUMMARY: NCI Yeast Anticancer Drug Screen. Data for the bub3 strain (AID 167)
# CONDITION_CONTEXT: S. cerevisiae bub3 mutant strain, at 50.0 µM, stronger effect = higher value
About 79,000 compounds went through this panel and 15% of them were active in at least one assay; those are over-represented in the sample as a whole.
The answer is to be given in %; state only the numeric part.

Some compounds with recorded growth inhibition:
{"COMPOUND": "O=C(CC(c1ccccc1)N1CCCCC1)OC(c1ccccc1)c1ccc(Br)cc1 (centres undefined)", "growth inhibition [%]": 6.4}
{"COMPOUND": "CCC(CC)CC1CCCCC1O (centres undefined)", "growth inhibition [%]": -48.7}
{"COMPOUND": "CNc1ncnc2c1cnn2-c1ccc(Cl)cc1", "growth inhibition [%]": 0.3}
{"COMPOUND": "O=C(O)CNc1ccc([N+](=O)[O-])cc1C(=O)O", "growth inhibition [%]": -6.7}
{"COMPOUND": "CC1(C)O[C@@H]2C[C@H]3[C@@H]4C[C@H](F)C5=CC(=O)C=C[C@]5(C)[C@@]4(F)[C@@H](O)C[C@]3(C)[C@]2(C(=O)CO)O1", "growth inhibition [%]": -57.8}

// recorded growth inhibition for COc1ccc(/C(Cl)=C(\C=O)c2ccc(Cl)c(Cl)c2)cc1OC : 0.7

// recorded growth inhibition for CC(=O)Nc1c(Cl)c(Cl)c2c(c1Cl)Cc1cc([N+](=O)[O-])ccc1-2 : 3.15

// recorded growth inhibition for CSC(C(OC(C)=O)C(OC(C)=O)C(OC(C)=O)C(COC(C)=O)OC(C)=O)n1cnc2c(=S)nc[nH]c21 (centres undefined) : -0.45

// recorded growth inhibition for CC1(C)CCc2cc3c(cc2O1)OC(C)(C)CC3=O : -1.45

// recorded growth inhibition for COc1ccc(-c2ccccc2)cc1NC(C)=O : 14

// recorded growth inhibition for O=C(O)c1[nH]c(=O)[nH]c(=O)c1Br : -15.7

// recorded growth inhibition for N#CC(C#N)=CNC(=S)Nc1ccc(Cl)c(Cl)c1 : 36

// recorded growth inhibition for CCCNS(=O)(=O)c1nc2ccccc2s1 : 2.65

// recorded growth inhibition for CN(C)c1ccccc1CN1CCCN(Cc2ccccc2N(C)C)C1c1ccncc1 : -16.2

// recorded growth inhibition for CN(c1ccc(Cl)cc1)S(=O)(=O)c1ccc([N+](=O)[O-])cc1 : 38

// recorded growth inhibition for CN(C)CCC(O)(c1ccccc1)C(O)(CCN(C)C)c1ccccc1 (centres undefined) : -13.8

// recorded growth inhibition for C=C1C(O)CC2C(O)C3(C)CCC(C)(C)C3C12O (centres undefined) : -0.25

// recorded growth inhibition for CC(C)(C)C1CCC(O)(CSc2ccccc2)CC1 (centres undefined) : -6.7

// recorded growth inhibition for C=CCOC(=O)C1(O)c2ccccc2NC(=S)N1CC=C (centres undefined) : 10.3

// recorded growth inhibition for O=C1c2ccccc2C(=O)N1CC1CC(S(=O)(=O)c2ccccc2)=NO1 (centres undefined) : -7.6

// recorded growth inhibition for NCCNCC(O)CO (centres undefined) : 3.9

// recorded growth inhibition for CC(=O)Nc1ccc(C(O)/C(=N/N)c2nc3ccc(Cl)cc3[nH]c2=O)cc1 (centres undefined) : 5.55

// recorded growth inhibition for Nc1cc(=O)c2n[nH]nc2[nH]1 : -14.3

// recorded growth inhibition for C[N+](C)(CCOc1ccccc1)Cc1ccccc1 : 48
